The binders listed here are annotated with their LogAUC.
Tested system: T1, CH505.TF mutant gp120 M20 (HIV-1)
T1 construct: domain: gp120
Assay procedure: ELISA
Please give the numeric answer without any surrounding text.

- CH235 (antibody, V domains shown, also called CH235_4A) VH: QVQLVQSGAEVKKPGASVTVSCQASGYTFTNYYVHWVRQAPGQGLQLMGWIDPSWGRTNYAQNFQGRITMTRDTSTSTVYMEMRSLRSEDTAVYYCARNVATEGSLLHYDYWGQGTLVTVSA VL: EIVLTQSPATLSVSPGERATLSCRASQSVRSNLAWYQQRPGQAPRLLIYGTSTRATGVPARFSGRGSGTEFTLAISSMQSEDFAVYLCLQYNNWWTFGQGTKVEIK: 0

Let us move to another entry and its LogAUC.
Which LogAUC is reported for this binder? CH236 (antibody, V domains shown, also called CH236_4A/293i) VH: QVQLVQSGAAVKRPGASVTISCRASGYTFTTYYIHWVRQAPGQRLELMGMIDPSRGRTDYAQKFQGRVTMSRDTSTSTLYMELRSLRPDDTALYYCVRNVGTEGSLLHYDYWGQGTLVTVSS VL: EIVLTQSPATLSVSPGERVTLSCRASQSVRNNLAWYRQKRGQAPRLLIYGASTRATGIPARFSGSGSGTEFTLTISSMQSEDFAVYYCQQYNNWWTFGQGTKVEIK
0
